tested on: Escherichia coli TOP10; assay: shrunken log2 fold change of peptide-encoding DNA abundance (4.5 h post-induction vs induction); higher = less antimicrobial activity (less host growth inhibition); conditions: time post-induction: 4.5 h; library: site-saturation at positions 5, 18, 19, 20
Can you tell me shrunken log2 fold change for the items I'm about to list?
Answers are plain numbers.

Known shrunken log2 fold change results, listed for orientation:
- Primary sequence: "RRIRTRPPRLPRPRPRPGTSPRP"
  Quantity name: "shrunken log2 fold change"
  Result number: -0.043
- Primary sequence: "RRIRHRPPRLPRPRPRPVCLPRP"
  Quantity name: "shrunken log2 fold change"
  Result number: -0.0609
- Primary sequence: "RRIRARPPRLPRPRPRPCTVPRP"
  Quantity name: "shrunken log2 fold change"
  Result number: -0.26
- Primary sequence: "RRIRMRPPRLPRPRPRPEKLPRP"
  Quantity name: "shrunken log2 fold change"
  Result number: 0.462

Give shrunken log2 fold change for each of the items listed below.
1. RRIRWRPPRLPRPRPRPDVFPRP
2. RRIRIRPPRLPRPRPRPFLPPRP
3. RRIRERPPRLPRPRPRPHFDPRP
4. RRIRIRPPRLPRPRPRPVSVPRP
5. RRIRNRPPRLPRPRPRPGGWPRP

1: 0.019; 2: -0.4; 3: -0.14; 4: -0.191; 5: 0.662

List the reported shrunken log2 fold change of each sequence below.
1. RRIRDRPPRLPRPRPRPIKNPRP
2. RRIRCRPPRLPRPRPRPGTHPRP
3. RRIRARPPRLPRPRPRPGWWPRP
4. RRIRARPPRLPRPRPRPTSFPRP
5. RRIRIRPPRLPRPRPRPFTCPRP
6. RRIRDRPPRLPRPRPRPFPKPRP

1. -0.158
2. -0.243
3. 0.235
4. 0.237
5. 0.0493
6. -0.201

Quick batch: shrunken log2 fold change for everything below.
1. RRIRSRPPRLPRPRPRPWFWPRP
2. RRIRDRPPRLPRPRPRPFPLPRP
3. RRIRCRPPRLPRPRPRPIAAPRP
4. RRIRRRPPRLPRPRPRPIKCPRP
5. RRIRYRPPRLPRPRPRPHHDPRP
6. RRIRCRPPRLPRPRPRPETWPRP

1: 0.326; 2: 0.0517; 3: 0.549; 4: -0.17; 5: -0.917; 6: 0.203

###

test system: Escherichia coli TOP10; assay: shrunken log2 fold change of peptide-encoding DNA abundance (4.5 h post-induction vs induction); higher = less antimicrobial activity (less host growth inhibition); conditions: time post-induction: 4.5 h; library: site-saturation at positions 5, 18, 19, 20;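 further: peptides expressed intracellularly from a pBAD plasmid library in pooled LB shake-flask culture, induced with 0.3% L-arabinose, DNA abundance read by NGS, three biological replicates, DESeq2 with apeglm shrinkage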
Quantity name: shrunken log2 fold change
Give bare numbers.

# per-item lookup of shrunken log2 fold change; items listed below
1. RRIRFRPPRLPRPRPRPSIYPRP
2. RRIRSRPPRLPRPRPRPDCDPRP
3. RRIRQRPPRLPRPRPRPFTHPRP
4. RRIRFRPPRLPRPRPRPFKDPRP
5. RRIRRRPPRLPRPRPRPWPFPRP

1: -0.615; 2: 0.152; 3: -0.0618; 4: -0.112; 5: -0.0442

Quick batch: shrunken log2 fold change for everything below.
1. RRIRDRPPRLPRPRPRPLNPPRP
2. RRIRKRPPRLPRPRPRPTAGPRP
3. RRIRSRPPRLPRPRPRPHIDPRP

1. -0.478
2. 0.581
3. -0.369
